Collected cell viability values appear next to each entry.
Test system: Calu-3
Test: cell viability relative to DMSO; higher = less toxic
Conditions: 72 h; 100 nM
The reply should be a number in %, with the unit left off.

>  <compound>
COc1cc2c(NC3CCN(C(C)C)CC3)nc(N3CCC(F)(F)CC3)nc2cc1OCCCN1CCCC1 [UNC0642]

>  <unit string>
%

>  <number>
95.3

$$$$

Entry O=C(NCc1ccc(OC(F)(F)F)cc1)C1c2ccccc2C(=O)N1C1CCOCC1 (stereo not drawn) [NAV-26] : reported cell viability = ?
93.8

And then O=C1CNC(=O)CN1 [piperazinedione] , what is it?
91.8

And then Cc1cc(C)cc(OCC2CNC(=O)O2)c1 (stereo not drawn) [metaxalone] , what is it?
103

And then COc1cc(S(C)(=O)=O)ccc1Nc1nc2ccc(-c3ccc(NC(=O)[C@H](C)c4ccc(F)cc4)cc3)cn2n1 [Mps1-IN-5] , what is it?
94.6

And then COc1ccc(S(=O)(=O)N2c3ccc(Cl)cc3[C@](O)(c3ccccc3Cl)[C@@H]2C(=O)N2CCC[C@H]2C(N)=O)cc1OC [relcovaptan] , what is it?
93.3

And then Nc1ccn(C[C@@H](CO)OCP(=O)(O)O)c(=O)n1 [cidofovir] , what is it?
112

And then CC(=O)[C@]1(O)Cc2c(O)c3c(c(O)c2[C@@H](O[C@H]2C[C@H](N)[C@H](O)[C@H](C)O2)C1)C(=O)c1ccccc1C3=O [idarubicin] , what is it?
48.6

###

Test system: Calu-3
Assay: cell viability relative to DMSO; higher = less toxic
Conditions: 72 h; 1000 nM
measurement kind: cell viability (%)
The reply should be a number in %, with the unit left off.

Here are 10 compounds together with their reported answers.
>  <compound>
CCCCOC(=O)c1ccc(N)cc1 [butamben]

>  <target>
Calu-3

>  <measurement kind>
cell viability

>  <number>
93.7

$$$$
>  <compound>
CN[C@@H]1[C@@H](O[C@H]2O[C@H](CO)[C@@H](N)[C@H](O)[C@H]2O)O[C@H]2C[C@@H](N)[C@@H](O[C@H]3[C@H](O)[C@@H](O)[C@H](N)C[C@@H]3N)O[C@@H]2[C@@H]1O [apramycin]

>  <target>
Calu-3

>  <measurement kind>
cell viability

>  <number>
91.5

$$$$
>  <compound>
C#CCN[C@@H]1CCc2ccccc21 [rasagiline]

>  <target>
Calu-3

>  <measurement kind>
cell viability

>  <number>
97.3

$$$$
>  <compound>
C[C@H](Nc1cc(-c2cnn(C)c2)cc(Nc2cnccn2)n1)c1ccc(F)cc1 [NS-018]

>  <target>
Calu-3

>  <measurement kind>
cell viability

>  <number>
62.7

$$$$
>  <compound>
COc1ccc(C2CC(c3c(O)cc(C)oc3=O)=NCCS2)c(OC)c1 (stereo not drawn)

>  <target>
Calu-3

>  <measurement kind>
cell viability

>  <number>
80.4

$$$$
>  <compound>
COc1ccc(-c2csc(NC(=O)[C@H]3CCCCN3S(=O)(=O)c3ccc(C)cc3)n2)cc1 [ML277]

>  <target>
Calu-3

>  <measurement kind>
cell viability

>  <number>
92.6

$$$$
>  <compound>
CC(=O)N[C@@H](CSSC[C@H](NC(C)=O)C(=O)O)C(=O)O [D-7193]

>  <target>
Calu-3

>  <measurement kind>
cell viability

>  <number>
95.6

$$$$
>  <compound>
O=C(NCCN1CCCCC1)c1ccc(I)cc1 [N-[2-(piperidinylamino)ethyl]-4-iodobenzamide]

>  <target>
Calu-3

>  <measurement kind>
cell viability

>  <number>
92.7

$$$$
>  <compound>
Nc1c(CC(=O)O)cccc1C(=O)c1ccc(Br)cc1 [bromfenac]

>  <target>
Calu-3

>  <measurement kind>
cell viability

>  <number>
84.2

$$$$
>  <compound>
Cc1cccc(C)c1NC(=O)c1ccc(N)cc1 [ameltolide]

>  <target>
Calu-3

>  <measurement kind>
cell viability

>  <number>
92.5

$$$$

// map COc1ccc(-c2cc3nccn3c(Nc3ncccc3C(N)=O)n2)cc1OC [BAY-61-3606] to recorded cell viability (system: Calu-3)
130

And then NC[C@@H]1CC[C@@H](N)[C@@H](O[C@H]2[C@H](O)[C@@H](O[C@H]3O[C@H](CO)[C@@H](O)[C@H](N)[C@H]3O)[C@H](N)C[C@@H]2N)O1 [dibekacin] , what is it?
101

And then O=C(Nc1cc(C(F)(F)F)ccc1O)Nc1cc(C(F)(F)F)ccc1O [NS-1643] , what is it?
97.4

And then CC1CNc2c(cccc2S(=O)(=O)N[C@@H](CCCNC(=N)N)C(=O)N2CC[C@@H](C)C[C@@H]2C(=O)O)C1 (mixture of isomers) [argatroban] , what is it?
93.8

And then NC(=O)c1ccc(N(C(N)=O)c2c(F)cccc2F)nc1-c1ccc(F)cc1F [VX-702] , what is it?
95.4

And then O=C(COP(=O)(O)O)[C@@H](O)[C@H](O)[C@H](O)COP(=O)(O)O [fosfructose] , what is it?
98.8

And then COc1ccc(CCNCC(O)COc2cccc(C)c2)cc1OC (stereo not drawn) [bevantolol] , what is it?
113

And then NCCc1cc[nH]n1 [betazole] , what is it?
101

###

Test system: Caco-2
Test: cell viability relative to DMSO; higher = less toxic
Settings: 72 h; 10000 nM
Collected cell viability values appear next to each entry.
The reply should be a number in %, with the unit left off.

>  <compound>
C[C@H](Nc1cc(-c2cnn(C)c2)cc(Nc2cnccn2)n1)c1ccc(F)cc1 [NS-018]

>  <target>
Caco-2

>  <cell viability / %>
32

$$$$

Pending compound:
Entry NCCc1ccccn1 [2-pyridylethylamine] : reported cell viability = ?
108

###

Tested on: Caco-2
Test: cell viability relative to DMSO; higher = less toxic
Details: 72 h; 10000 nM
Collected cell viability values appear next to each entry.

Here are 5 compounds together with their reported answers.
>  <compound>
CNC[C@H](O)c1cccc(O)c1

>  <measurement kind>
cell viability

>  <result>
99.7%

$$$$
>  <compound>
O=C(O)CCCNC(=O)c1cccnc1

>  <measurement kind>
cell viability

>  <result>
99.8%

$$$$
>  <compound>
O=P(O)(O)C(O)(Cc1cnc2ccccn12)P(=O)(O)O

>  <measurement kind>
cell viability

>  <result>
98.6%

$$$$
>  <compound>
O=C(O)c1cc(O)c2c(c1)C(=O)c1cccc(O)c1C2=O

>  <measurement kind>
cell viability

>  <result>
98.1%

$$$$
>  <compound>
[NH-]c1c[n+](N2CCOCC2)no1

>  <measurement kind>
cell viability

>  <result>
89.4%

$$$$

Entry O=C1CNC(=O)CN1 : reported cell viability = ?
94.8%

And then NS(=O)(=O)c1cc2c(cc1C(F)(F)F)NCNS2(=O)=O [hydroflumethiazide] , what is it?
92.2%

And then COC(=O)C1=C(C)NC(C)=C(C(=O)NCCCN2CCC(c3ccccc3)(c3ccccc3)CC2)C1c1ccc([N+](=O)[O-])cc1 (centres undefined) , what is it?
63%

And then CC(C)[C@]12O[C@H]1[C@@H]1O[C@]13[C@]1(O[C@H]1C[C@H]1C4=C(CC[C@@]13C)C(=O)OC4)[C@@H]2O [triptolide] , what is it?
27.6%

###

System: HepG2
Assay: cell viability relative to DMSO; higher = less toxic
Settings: 72 h; 10000 nM
measurement kind: cell viability (%)
The reply should be a number in %, with the unit left off.

Here are 5 compounds together with their reported answers.
>  <compound>
COc1cc2c(NC3CCN(C(C)C)CC3)nc(N3CCC(F)(F)CC3)nc2cc1OCCCN1CCCC1

>  <target>
HepG2

>  <unit string>
%

>  <cell viability>
24.8

$$$$
>  <compound>
O=C(O)c1ccccc1O

>  <target>
HepG2

>  <unit string>
%

>  <cell viability>
108

$$$$
>  <compound>
Cc1ccc(NC2=NCCN2)c(Cl)c1

>  <target>
HepG2

>  <unit string>
%

>  <cell viability>
111

$$$$
>  <compound>
O=C/C=C/c1ccccc1

>  <target>
HepG2

>  <unit string>
%

>  <cell viability>
97.5

$$$$
>  <compound>
O=C(Nc1cc(C(F)(F)F)ccc1O)Nc1cc(C(F)(F)F)ccc1O

>  <target>
HepG2

>  <unit string>
%

>  <cell viability>
92.5

$$$$

Entry O=C1CNC(=O)CN1 : reported cell viability = ?
103

And then CC(C)[C@H](N)C(=O)OCC(CO)OCn1cnc2c(=O)nc(N)[nH]c21 (mixture of isomers) , what is it?
90.5

And then COc1ccccc1N1CCN(CC(O)COc2cc(OC)c(OC)c(OC)c2)CC1 (centres undefined) , what is it?
96

And then O=C(Nc1cccc(C(F)(F)F)c1)Nc1ccc(Br)cc1-c1nnn[nH]1 , what is it?
112
